Every entry's value here was drawn from ChEMBL document CHEMBL1146878.

target: Glutamate receptor 4 (Homo sapiens, UniProt P48058); experiment: Activity against human GLUR4 flop expressed in HEK293 cells assessed as glutamate-stimulated calcium influx by FLIPR assay; type: functional, cell-based
Sequence (P48058 whole entry): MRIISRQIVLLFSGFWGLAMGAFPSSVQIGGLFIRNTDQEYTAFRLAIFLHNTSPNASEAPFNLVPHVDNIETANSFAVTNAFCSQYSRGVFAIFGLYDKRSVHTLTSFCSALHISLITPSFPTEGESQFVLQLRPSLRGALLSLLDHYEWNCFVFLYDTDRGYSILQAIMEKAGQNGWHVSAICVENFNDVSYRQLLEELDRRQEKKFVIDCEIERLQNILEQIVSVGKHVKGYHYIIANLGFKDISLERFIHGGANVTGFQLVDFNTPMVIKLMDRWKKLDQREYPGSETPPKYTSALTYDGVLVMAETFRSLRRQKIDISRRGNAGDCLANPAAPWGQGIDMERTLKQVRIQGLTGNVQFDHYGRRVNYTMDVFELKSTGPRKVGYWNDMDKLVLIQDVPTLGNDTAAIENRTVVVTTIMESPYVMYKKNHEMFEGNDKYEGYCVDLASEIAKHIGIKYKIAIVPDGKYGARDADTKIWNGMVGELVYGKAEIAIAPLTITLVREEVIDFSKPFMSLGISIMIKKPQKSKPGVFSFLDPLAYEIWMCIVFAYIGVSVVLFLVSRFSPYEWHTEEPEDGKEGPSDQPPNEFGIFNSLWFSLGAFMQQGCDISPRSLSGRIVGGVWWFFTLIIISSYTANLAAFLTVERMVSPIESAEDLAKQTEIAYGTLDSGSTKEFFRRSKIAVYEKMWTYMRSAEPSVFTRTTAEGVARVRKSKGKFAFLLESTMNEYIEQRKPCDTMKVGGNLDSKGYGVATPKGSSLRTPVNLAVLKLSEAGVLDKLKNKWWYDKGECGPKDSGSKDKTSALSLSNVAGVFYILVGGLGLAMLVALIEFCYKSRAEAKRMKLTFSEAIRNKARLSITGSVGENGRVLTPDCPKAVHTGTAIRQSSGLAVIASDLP
readout-label: EC50 (µM)
Write the number in µM without appending the unit.

Identify EC50 associated with the compound CC(CNS(=O)(=O)C(C)C)c1ccc(-c2ccc(C#N)cc2)cc1 (stereo not given)
1.06

***
Identify EC50 associated with the compound CSc1c(C#N)c(-c2ccc(C(C)(C)C)cc2)c(C(=O)O)n1C
1.42

====

target: Glutamate receptor 2 (Homo sapiens); assay: Activity against human GLUR2 flip expressed in HEK293 cells assessed as glutamate-stimulated calcium influx by FLIPR assay; type: functional, cell-based
Sequence (P42262 whole entry): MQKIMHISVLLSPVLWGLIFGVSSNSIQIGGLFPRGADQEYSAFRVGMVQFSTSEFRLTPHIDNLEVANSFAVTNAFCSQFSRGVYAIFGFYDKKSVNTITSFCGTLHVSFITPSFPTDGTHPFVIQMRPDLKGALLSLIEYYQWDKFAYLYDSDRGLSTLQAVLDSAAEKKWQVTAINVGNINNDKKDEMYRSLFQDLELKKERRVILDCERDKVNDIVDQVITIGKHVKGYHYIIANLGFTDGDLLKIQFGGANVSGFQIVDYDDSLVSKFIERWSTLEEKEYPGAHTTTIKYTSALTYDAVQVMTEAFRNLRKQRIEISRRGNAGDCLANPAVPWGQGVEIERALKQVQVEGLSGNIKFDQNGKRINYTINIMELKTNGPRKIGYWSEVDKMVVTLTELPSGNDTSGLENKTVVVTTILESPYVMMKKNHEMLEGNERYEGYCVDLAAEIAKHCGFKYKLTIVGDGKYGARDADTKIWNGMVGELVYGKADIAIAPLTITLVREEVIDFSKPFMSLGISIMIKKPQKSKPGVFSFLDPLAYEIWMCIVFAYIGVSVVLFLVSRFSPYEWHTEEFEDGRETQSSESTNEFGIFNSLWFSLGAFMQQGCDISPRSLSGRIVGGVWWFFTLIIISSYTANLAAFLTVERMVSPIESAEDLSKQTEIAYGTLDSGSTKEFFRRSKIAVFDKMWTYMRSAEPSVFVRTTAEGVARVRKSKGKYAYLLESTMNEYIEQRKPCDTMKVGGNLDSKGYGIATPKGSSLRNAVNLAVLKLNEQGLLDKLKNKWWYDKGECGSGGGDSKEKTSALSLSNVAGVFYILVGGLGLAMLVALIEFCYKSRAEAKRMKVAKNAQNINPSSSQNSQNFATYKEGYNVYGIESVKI
readout-label: pEC50
Value format note: pEC50 is -log10 of concentration (mol/L); just state the number.

Identify pEC50 associated with the compound CSc1c(C#N)c(-c2ccc(C(C)(C)C)cc2)c(C(=O)O)n1C
6.16

Identify pEC50 associated with the compound CC(C)(C)c1ccc(-c2c(C(=O)O)sc(N3CCCC3)c2C#N)cc1
5.94

Identify pEC50 associated with the compound CC(C)(C)c1ccc(-c2c(C(=O)O)sc(C(F)(F)F)c2C#N)cc1
7.11

Identify pEC50 associated with the compound CC(CNS(=O)(=O)C(C)C)c1ccc(-c2ccc(C#N)cc2)cc1 (centres undefined)
6.25

Identify pEC50 associated with the compound CN(C)c1sc(C(=O)O)c(-c2ccc(C(C)(C)C)cc2)c1C#N
6.75

Identify pEC50 associated with the compound CC(C)(C)c1ccc(-c2c(C(=O)O)sc(S(C)(=O)=O)c2C#N)cc1
6.48

Identify pEC50 associated with the compound CCc1sc(C(=O)O)c(-c2ccc(C(C)(C)C)cc2)c1C#N
7.33
